Exercise: state measured β-Galactosidase Activity, Cultured Without ATC for each of the molecules provided.
System: tet operator sequence
Test: β-galactosidase activity of a tetracycline-regulated promoter in transformed E. coli with revTetR, in the presence and absence of anhydrotetracycline (atc)
Type: cell-based, Escherichia coli
Conditions: RevTetR isolate cultured in the absence of anhydrotetracycline (ATC)
Give bare numbers.

TetRrev3/38: revTetR(BD) L17H I22F E23G (protein, Modified tetracycline repressor, revTetR(BD) L17H I22F E23G) MSRLDKSKVINSALELHNEVGFGGLTTRKLAQKLGVEQPTLYWHVKNKRALLDALAVEILARHHDYSLPAAGESWQSFLRNNAMSFRRALLRYRDGAKVHLGTRPDEKQYDTVETQLRFMTENGFSLRDGLYAISAVSHFTLGAVLEQQEHTAALTDRPAAPDENLPPLLREALQIMDSDDGEQAFLHGLESLIRGFEVQLTALLQIV; 97.043

// next item, β-Galactosidase Activity, Cultured Without ATC requested
Query string: Looking for the measured β-Galactosidase Activity, Cultured Without ATC of TetRrev6-53: revTetR(BD) A97P K98R V99D (protein, Modified tetracycline repressor, revTetR(BD) A97P K98R V99D) MSRLDKSKVINSALELLNEVGIEGLTTRKLAQKLGVEQPTLYWHVKNKRALLDALAVEILARHHDYSLPAAGESWQSFLRNNAMSFRRALLRYRDGPRDHLGTRPDEKQYDTVETQLRFMTENGFSLRDGLYAISAVSHFTLGAVLEQQEHTAALTDRPAAPDENLPPLLREALQIMDSDDGEQAFLHGLESLIRGFEVQLTALLQIV , can you help?
Result string: 107.107
